# Tested on: 186277-243-T-J2-PDC complex spheroid viability;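 also: spheroids exposed to compounds for seven days; 100% = DMSO vehicle control viability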
# experimentalDetails: Anticancer human tumor 186277-243-T-J2-PDC patient-derived colon adenocarcinoma cell line growth inhibition [POLQ]
# particulars: second compound 0.0316 µM; first compound 0.316 µM; active compounds read low
Measured viability, T/C, listed per entry.

[
  {
    "compound": "CCc1cc2c(N3CCc4c(cc(Cn5ccnc5)cc4-c4cn(C)nc4C(F)(F)F)C3=O)ccnc2c(OC)n1 + COC1C(OC(N)=O)C(O)C(Oc2ccc3c(O)c(NC(=O)c4ccc(O)c(CC=C(C)C)c4)c(=O)oc3c2C)OC1(C)C",
    "unitsOfMeasure": "%",
    "viability, T/C": 116
  },
  {
    "compound": "Nc1ccn(C2OC(CO)C(O)C2(F)F)c(=O)n1 (stereo unspecified) + Nc1ccc(C#CCN(C(=O)Cc2ncc(C(F)(F)F)cc2C(F)(F)F)c2ccc(F)cc2)nn1",
    "unitsOfMeasure": "%",
    "viability, T/C": 11.6
  },
  {
    "compound": "CNCc1ccc(-c2[nH]c3cc(F)cc4c3c2CCNC4=O)cc1 + COC1C(OC(N)=O)C(O)C(Oc2ccc3c(O)c(NC(=O)c4ccc(O)c(CC=C(C)C)c4)c(=O)oc3c2C)OC1(C)C",
    "unitsOfMeasure": "%",
    "viability, T/C": 91
  },
  {
    "compound": "COc1cccc(OCCCN)c1-c1cc(Nc2cnc(C#N)cn2)n[nH]1 + Nc1ccc(C#CCN(C(=O)Cc2ncc(C(F)(F)F)cc2C(F)(F)F)c2ccc(F)cc2)nn1",
    "unitsOfMeasure": "%",
    "viability, T/C": 9.94
  },
  {
    "compound": "C=CC(=O)N1CCN(c2nc(=O)n(-c3c(C)ccnc3C(C)C)c3nc(-c4c(O)cccc4F)c(F)cc23)C(C)C1 (stereo unspecified) + Nc1ccc(C#CCN(C(=O)Cc2ncc(C(F)(F)F)cc2C(F)(F)F)c2ccc(F)cc2)nn1",
    "unitsOfMeasure": "%",
    "viability, T/C": 96.2
  },
  {
    "compound": "CCc1cc2c(N3CCc4c(cc(Cn5ccnc5)cc4-c4cn(C)nc4C(F)(F)F)C3=O)cc(C)nc2c(OC)n1 + Cc1cccc(N(C)C(=O)C2C(O)CCN2c2nc(C)cc(C(F)(F)F)c2C#N)c1",
    "unitsOfMeasure": "%",
    "viability, T/C": 98.8
  },
  {
    "compound": "CC1COCCN1c1cc(C2(O)CC3CCC(C2)O3)c2cnn(-c3ccn[nH]3)c2n1 (stereo unspecified) + Nc1ccc(C#CCN(C(=O)Cc2ncc(C(F)(F)F)cc2C(F)(F)F)c2ccc(F)cc2)nn1",
    "unitsOfMeasure": "%",
    "viability, T/C": 9.32
  },
  {
    "compound": "CCCS(=O)(=O)Nc1ccc(F)c(C(=O)c2c[nH]c3ncc(-c4ccc(Cl)cc4)cc23)c1F + Nc1ccc(C#CCN(C(=O)Cc2ncc(C(F)(F)F)cc2C(F)(F)F)c2ccc(F)cc2)nn1",
    "unitsOfMeasure": "%",
    "viability, T/C": 88.9
  },
  {
    "compound": "COc1ccc([C@@H](O)c2cc(-c3ncnc4cc(N5CCOCC5)ccc34)c(F)cc2Cl)nn1 + Cc1cccc(N(C)C(=O)C2C(O)CCN2c2nc(C)cc(C(F)(F)F)c2C#N)c1",
    "unitsOfMeasure": "%",
    "viability, T/C": 94.9
  },
  {
    "compound": "O=C(c1cc(Cc2n[nH]c(=O)c3ccccc23)ccc1F)N1CCN(C(=O)C2CC2)CC1 + Cc1cccc(N(C)C(=O)C2C(O)CCN2c2nc(C)cc(C(F)(F)F)c2C#N)c1",
    "unitsOfMeasure": "%",
    "viability, T/C": 99.9
  },
  {
    "compound": "C=CC(=O)N1CCN(c2nc(=O)n(-c3c(C)ccnc3C(C)C)c3nc(-c4c(O)cccc4F)c(F)cc23)C(C)C1 (stereo unspecified) + Cc1cccc(N(C)C(=O)C2C(O)CCN2c2nc(C)cc(C(F)(F)F)c2C#N)c1",
    "unitsOfMeasure": "%",
    "viability, T/C": 82.2
  }
]
